These entries and their values trace back to ChEMBL document CHEMBL4689842.

Test system: U2OS
TEST: Multiplex assay against U2OS
Format: toxicity, cell-based
CONDITION LABEL: human, 48 h, 10 µM, compound concentration 10 uM, replicate 1
READOUT TYPE: Population Mitochondria Different-Phenotype (%)
One number for each entry, in %.

Examples with their reported Population Mitochondria Different-Phenotype (%) follow.
Exercise: Report Population Mitochondria Different-Phenotype (%) for COCC(=O)NC/C=C/c1ccc2ncnc(Nc3ccc(Oc4ccc(C)nc4)c(C)c3)c2c1 please.
Key: 91

Exercise: Recorded Population Mitochondria Different-Phenotype (%) of CCn1c(=O)c(-c2ccc(-c3cncs3)cc2Cl)cc2cnc(Nc3ccc(N4CCN(C)CC4)cc3)nc21 , please.
Key: 25

Exercise: # get_value(readout='Population Mitochondria Different-Phenotype (%)', item= S=C(NCCCc1c[nH]cn1)NCCCN(Cc1ccc(Cl)c(Cl)c1)c1ccc(Br)cn1 )
Key: 100

Exercise: # get_value(readout='Population Mitochondria Different-Phenotype (%)', item= CN1CCC(=C2c3ccccc3CC(=O)c3sccc32)CC1.O=C(O)/C=C/C(=O)O [KETOTIFEN FUMARATE] )
Key: 70

Could you report Population Mitochondria Different-Phenotype (%) for every entry in the following list?
1. Cc1cn(-c2cc(NC(=O)c3ccc(C)c(Nc4nccc(-c5cccnc5)n4)c3)cc(C(F)(F)F)c2)cn1
2. O=C1NC(=O)C(c2cnc3ccccn23)=C1c1cn2c3c(cc(F)cc13)CN(C(=O)N1CCCCC1)CC2
3. CCN1CCN(Cc2ccc(Nc3ncc(F)c(-c4cc(F)c5nc(C)n(C(C)C)c5c4)n3)nc2)CC1.CS(=O)(=O)O
4. CN1C2CCC1CC(OC(c1ccc(F)cc1)c1ccc(F)cc1)C2.Cl (stereo not given)
5. C=C1/C(=C\C=C2/CCC[C@]3(C)[C@@H]([C@H](C)/C=C/[C@H](C)C(C)C)CC[C@@H]23)C[C@@H](O)C[C@@H]1O

Key:
33
93
100
44
29

Exercise: Value lookup for Population Mitochondria Different-Phenotype (%); key = Cc1cc(C)c(S(=O)(=O)N(Cc2ccc(-c3cccc(S(C)(=O)=O)c3)cc2)Cc2ccc(C(F)(F)F)o2)c(C)c1
Key: 24

* * *

Test system: HEK-293T
TEST: Multiplex assay against HEK293T
Type: toxicity, cell-based
CONDITION LABEL: human, 12 h, 1 µM, compound concentration 1 uM, replicate 2
READOUT TYPE: Population Mitotic Cells (%)
Answers are plain numbers, in %.

Exercise: Provide value of Population Mitotic Cells (%) for this record tested with HEK-293T: Cl.O=C(c1ccc(Nc2nccc(-c3cc4ccccc4s3)n2)cc1)N1CCC(N2CCCC2)CC1
Key: 87

Exercise: // fetch HEK-293T Population Mitotic Cells (%) for CCN1CCN(Cc2ccc(Nc3ncc(F)c(-c4cc(F)c5nc(C)n(C(C)C)c5c4)n3)nc2)CC1.CS(=O)(=O)O
Key: 59

Exercise: GET /values?readout=Population Mitotic Cells (%)&system=HEK-293T&item= O=C1NC(=O)C(c2cnc3ccccn23)=C1c1cn2c3c(cc(F)cc13)CN(C(=O)N1CCCCC1)CC2
Key: 73

Moving on to the next molecule.
Exercise: # get_value(readout= Population Mitotic Cells (%), system= HEK-293T) for COc1ccc(-c2ccc3c(N4CCOCC4)nc(N4C[C@@H](C)O[C@@H](C)C4)nc3n2)cc1CO
Key: 91
